Task for the reader: assign each of the following molecules its reported IC50.
Test system: Leishmania donovani
assay-name: Antileishmanial activity against Leishmania donovani LV9 promastigotes by MTT method
Type: functional, organism-based
The reply should contain only the number, in µM.

In: Please look up its IC50: `Cc1cn([C@H]2C[C@H](N=[N+]=[N-])[C@@H](CO)O2)c(=O)[nH]c1=O`
Out: 3.4

In: Subsequent entry: CN(C)c1ccc(C2CC(=O)C3C(C2)OC(N)=C(C#N)C3c2cn([C@@H]3C[C@@H](O)[C@H](CO)O3)c(=O)[nH]c2=O)cc1 (stereo partly drawn)
Out: 6.2

In: Subsequent entry: N#CC1=C(N)OC2=C(C(=O)CCC2)C1c1cn([C@H]2C[C@H](O)[C@@H](CO)O2)c(=O)[nH]c1=O (stereo partly drawn)
Out: 1.4

In: Subsequent entry: CC1CC(=O)C2=C(C1)OC(N)=C(C#N)C2c1cn([C@H]2C[C@H](O)[C@@H](CO)O2)c(=O)[nH]c1=O (stereo partly drawn)
Out: 9.4

In: Subsequent entry: CCOC(=O)C1=C(N)OC2=C(C(=O)CC(C)(C)C2)C1c1cn([C@H]2C[C@H](O)[C@@H](CO)O2)c(=O)[nH]c1=O (stereo partly drawn)
Out: 7.2

In: Subsequent entry: `N=C(N)c1ccc(OCCCCCOc2ccc(C(=N)N)cc2)cc1`
Out: 6.6

In: Subsequent entry: CC(=O)OC[C@H]1O[C@@H](n2cc(C3C(C#N)=C(N)OC4=C3C(=O)CC(c3ccc(Cl)cc3)C4)c(=O)[nH]c2=O)C[C@@H]1OC(C)=O (stereo partly drawn)
Out: 80.2
